molecular target: Adrenergic receptor beta (Rattus norvegicus, UniProt P18090+P10608+P26255); experiment: Inhibition of beta adrenergic receptor isolated from rat ventricle homogenates.
Labelling: IC50 reported below 10 nM becomes yes; at or above becomes no.

Challenge: State whether 10 nM exceeds IC50 recorded for OC(CNc1ccc(Br)cc1)CON=C(C1CC1)C1CC1 (configuration not stated) .
Response given: yes

Challenge: State whether 10 nM exceeds IC50 recorded for CCOC(=O)c1ccc(NCC(O)CON=C(C2CC2)C2CC2)cc1 (configuration not stated) .
Response given: no

Challenge: State whether 10 nM exceeds IC50 recorded for OC(CNc1ccc(C(F)(F)F)cc1)CON=C(C1CC1)C1CC1 (configuration not stated) .
Response given: no

Challenge: State whether 10 nM exceeds IC50 recorded for Cc1ccnc(NCC(O)CON=C(C2CC2)C2CC2)c1 (configuration not stated) .
Response given: no

Challenge: State whether 10 nM exceeds IC50 recorded for CCCCc1ccc(NCC(O)CON=C(C2CC2)C2CC2)cc1 (configuration not stated) .
Response given: yes

Challenge: State whether 10 nM exceeds IC50 recorded for OC(CNc1ccccc1)CON=C(C1CC1)C1CC1 (configuration not stated) .
Response given: yes

Challenge: State whether 10 nM exceeds IC50 recorded for Cc1cccc(NCC(O)CON=C(C2CC2)C2CC2)c1 (configuration not stated) .
Response given: no

Challenge: State whether 10 nM exceeds IC50 recorded for Cc1ccc(NCC(O)CON=C(C2CC2)C2CC2)cc1 (configuration not stated) .
Response given: yes

Challenge: State whether 10 nM exceeds IC50 recorded for OC(CNc1ccncc1)CON=C(C1CC1)C1CC1 (configuration not stated) .
Response given: no

Challenge: State whether 10 nM exceeds IC50 recorded for O=[N+]([O-])c1ccc(NCC(O)CON=C(C2CC2)C2CC2)cc1 (configuration not stated) .
Response given: yes

Challenge: State whether 10 nM exceeds IC50 recorded for OC(CNc1nc2ccccc2s1)CON=C(C1CC1)C1CC1 (configuration not stated) .
Response given: yes
